Assayed system: KRAS G13D (Homo sapiens (Human), UniProt P01116+P62937, G13D)
Sequence (P01116-2 other isoform, or with tags, fused parts or gaps G13D): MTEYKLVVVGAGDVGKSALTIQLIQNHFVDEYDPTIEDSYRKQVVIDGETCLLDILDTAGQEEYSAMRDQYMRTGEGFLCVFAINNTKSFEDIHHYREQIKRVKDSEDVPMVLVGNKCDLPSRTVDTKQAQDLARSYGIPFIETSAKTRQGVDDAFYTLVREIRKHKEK
Sequence (P62937 whole entry): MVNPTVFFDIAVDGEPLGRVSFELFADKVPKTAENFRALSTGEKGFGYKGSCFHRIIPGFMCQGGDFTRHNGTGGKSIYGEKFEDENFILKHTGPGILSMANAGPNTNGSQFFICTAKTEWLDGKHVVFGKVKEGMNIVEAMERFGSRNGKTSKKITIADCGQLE
Protocol description: Ras-Raf (BRAF RBD) disruption / FRET / MOA assay, KRAS G13D
Format: biochemical
Measurement parameters: read-out: IC50* KRAS G13D FRET data
pIC50: −log10 of the molar value.
Readout label: pIC50

# Compound, Assayed system, pIC50
rows = [
    ("C=CC(=O)N1C[C@@H]2CN(C(=O)N(C)[C@H](C(=O)N[C@H]3Cc4nc(cs4)-c4ccc5c(c4)c(c(-c4cccnc4[C@H](C)OC)n5CC)CC(C)(C)COC(=O)[C@@H]4CCCN(N4)C3=O)C(C)C)[C@@H]2C1 (atropisomer, axis not shown)", "KRAS G13D (Homo sapiens (Human), UniProt P01116+P62937, G13D)", "5.00 to 6.00"),
    ("CCn1c(-c2cccnc2COC)c2c3cc(ccc31)-c1cccc(c1)C[C@H](NC(=O)[C@H](C(C)C)N(C)C(=O)[C@H]1CCN(C(=O)C#CCN(C)C)C1)C(=O)N1CCC[C@H](N1)C(=O)OCC(C)(C)C2 (atropisomer, axis not shown)", "KRAS G13D (Homo sapiens (Human), UniProt P01116+P62937, G13D)", "5.00 to 6.00"),
    ("C=C(OC)C(=O)N1CC2(CCN(C(=O)N(C)[C@H](C(=O)N[C@H]3Cc4nc(cs4)-c4ccc5c(c4)c(c(-c4cccnc4[C@H](C)OC)n5CC)CC(C)(C)COC(=O)[C@@H]4CCCN(N4)C3=O)C(C)C)CC2)C1 (atropisomer, axis not shown)", "KRAS G13D (Homo sapiens (Human), UniProt P01116+P62937, G13D)", "6.00 to 7.00"),
    ("CO[C@@H](C)c1ncc(N2CCN(C)CC2)cc1-c1c2c3cc(ccc3n1CC(F)(F)F)-c1cccc(c1)C[C@H](NC(=O)[C@H](C(C)C)N(C)C(=O)C1(F)CCN(C(=O)C#CC(C)(C)N(C)C)CC1)C(=O)N1CCC[C@H](N1)C(=O)OCC(C)(C)C2 (atropisomer, axis not shown)", "KRAS G13D (Homo sapiens (Human), UniProt P01116+P62937, G13D)", "7.00 to 8.00"),
    ("C=CC(=O)N1C[C@@H]2C[C@H]1CN2C(=O)N(C)[C@H](C(=O)N[C@H]1Cc2nc(cs2)-c2ccc3c(c2)c(c(-c2cccnc2[C@H](C)OC)n3CC)CC(C)(C)COC(=O)[C@@H]2CCCN(N2)C1=O)C(C)C (atropisomer, axis not shown)", "KRAS G13D (Homo sapiens (Human), UniProt P01116+P62937, G13D)", "5.00 to 6.00"),
]

Req: Request the reported pIC50 associated with CC#CC(=O)N1CC[C@H](C(=O)N(C)[C@H](C(=O)N[C@H]2Cc3cccc(c3)-c3ccc4c(c3)c(c(-c3cccnc3[C@H](C)OC)n4C#N)CC(C)(C)COC(=O)[C@@H]3CCCN(N3)C2=O)C(C)C)C1 (atropisomer, axis not shown)
Resp: < 5.00

Req: I have this compound here, C=CC(=O)N1CC(OC[C@H](C(=O)N[C@H]2Cc3cc(F)cc(c3)-c3ccc4c(c3)c(c(-c3cccnc3[C@H](C)OC)n4CC(F)(F)F)CC(C)(C)COC(=O)[C@@H]3CCCN(N3)C2=O)C(C)C)C1 (atropisomer, axis not shown) , and I need its recorded pIC50.
Resp: 5.00 to 6.00

Req: Look up pIC50: C=CC(=O)N1CC(C(=O)N(C)[C@H](C(=O)N[C@H]2Cc3cccc(c3)-c3ccc4c(c3)c(c(-c3cccnc3[C@H](C)OC)n4CC)CC(C)(C)COC(=O)[C@@H]3CCCN(N3)C2=O)C(C)C)C1 (atropisomer, axis not shown)
Resp: < 5.00

Req: Please give the measured pIC50 for this compound: "C=CC(=O)N1CC[C@H](C(=O)N(C)[C@H](C(=O)N[C@H]2Cc3cccc(c3)-c3ccc4c(c3)c(c(-c3cccnc3[C@H](C)OC)n4CC#N)CC(C)(C)COC(=O)[C@@H]3CCCN(N3)C2=O)C(C)C)C1"
Resp: 5.00 to 6.00

Req: Which value of pIC50 has been reported for CO[C@@H](C)c1ncccc1-c1c2c3cc(ccc3n1CC(F)(F)F)-c1csc(n1)C[C@H](NC(=O)[C@H](C(C)C)N(C)C(=O)N1CCC3(CC1)CN(C(=O)/C=C/CF)C3)C(=O)N1CCC[C@H](N1)C(=O)OCC(C)(C)C2 (atropisomer, axis not shown) in the records?
Resp: 6.00 to 7.00

Req: I have this compound here, CC#CC(=O)N1C[C@H](C)[C@H](C(=O)N(C)[C@H](C(=O)N[C@H]2Cc3cccc(c3)-c3ccc4c(c3)c(c(-c3cccnc3[C@H](C)OC)n4CC)CC(C)(C)COC(=O)[C@@H]3CCCN(N3)C2=O)C2CCCC2)C1 (atropisomer, axis not shown) , and I need its recorded pIC50.
Resp: < 5.00

Req: Name the recorded pIC50 for C=CC(=O)N1CC(OC[C@H](C(=O)N[C@H]2Cc3nc(cs3)-c3ccc4c(c3)c(c(-c3cccnc3[C@H](C)OC)n4CC)CC(C)(C)COC(=O)[C@@H]3CCCN(N3)C2=O)C(C)C)C1 (atropisomer, axis not shown) .
Resp: < 5.00

Req: May I ask what pIC50 has been recorded for C=CS(=O)(=O)N1CC[C@H](C(=O)N(C)[C@H](C(=O)N[C@H]2Cc3cccc(c3)-c3ccc4c(c3)c(c(-c3cccnc3[C@H](C)OC)n4CC)CC(C)(C)COC(=O)[C@@H]3CCCN(N3)C2=O)C(C)C)C1 (atropisomer, axis not shown) ?
Resp: < 5.00

Req: Find the recorded pIC50 belonging to CCn1c(-c2cccnc2[C@H](C)OC)c2c3cc(ccc31)-c1cccc(c1)C[C@H](NC(=O)CCOC1CN(C(=O)C#CC(C)(C)N3CCC3)C1)C(=O)N1CCC[C@H](N1)C(=O)OCC(C)(C)C2 (atropisomer, axis not shown) and report it.
Resp: < 5.00

Req: Quick one: pIC50 of C=CC(=O)N1CC[C@H](C(=O)N(C)[C@H](C(=O)N[C@H]2Cc3cccc(c3)-c3ccc4c(c3)c(c(-c3cccnc3[C@H](C)OC)n4CC(F)F)CC(C)(C)COC(=O)[C@@H]3CCCN(N3)C2=O)C(C)C)C1 (atropisomer, axis not shown) ?
Resp: 5.00 to 6.00

Ref: patent US11566007B2
